Record form. Attribute: pEC50. Fill in for each entry.
testedSystem: APJ (Homo sapiens, UniProt P35414)
Construct: expressed in transfected cells; host or cells: CHO (CHO-A10; clone 6 for the cAMP assay)
Sequence (P35414 1-380): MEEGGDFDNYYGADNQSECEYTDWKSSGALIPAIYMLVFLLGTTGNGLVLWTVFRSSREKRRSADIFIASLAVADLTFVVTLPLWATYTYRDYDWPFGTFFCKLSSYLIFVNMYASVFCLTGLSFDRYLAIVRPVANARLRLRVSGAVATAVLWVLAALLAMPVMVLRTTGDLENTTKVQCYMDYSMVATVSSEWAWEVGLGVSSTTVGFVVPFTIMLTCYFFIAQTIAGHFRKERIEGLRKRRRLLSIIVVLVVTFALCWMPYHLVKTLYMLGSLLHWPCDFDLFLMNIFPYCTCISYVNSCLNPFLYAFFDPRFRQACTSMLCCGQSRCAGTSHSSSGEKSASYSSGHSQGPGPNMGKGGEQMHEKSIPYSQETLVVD
assayOverview: Inhibitory activity on forskolin-stimulated cAMP production in CHO-A10 clone 6 cells
Format: cell-based
appliedConditions: read-out: EC50
Non-standard residues stand in square brackets, D forms with d. Residues, ends and D or L forms follow the SMILES beside them. Phe(4-Cl) = N[C@@H](Cc1ccc(Cl)cc1)C(=O)O; Cha = N[C@@H](CC1CCCCC1)C(=O)O
Please treat pEC50 as minus the base-10 logarithm of the molar concentration.

query: Query for APJ (Homo sapiens, UniProt P35414): what pEC50 does the record show for CC(C)C[C@H](NC(=O)[C@H](CCCNC(=N)N)NC(=O)[C@@H]1CCCN1C(=O)[C@@H](N)CCCNC(=N)N)C(=O)N[C@@H](Cc1ccccc1)C(=O)N[C@@H](Cc1c[nH]cn1)C(=O)N[C@@H](CCCCN)C(=O)NCC(=O)N1CCC[C@H]1C(=O)N[C@@H](CC1CCCCC1)C(=O)N1CCC[C@H]1C(=O)N[C@@H](Cc1ccc(Cl)cc1)C(=O)O [Compound in Ex. 13] (H-RPRLFHKGP[Cha]P[Phe(4-Cl)]-OH; N-terminus and C-terminus assumed) ?
result: 9.00

query: Item CSCC[C@H](NC(=O)[C@@H]1CCCN1C(=O)CNC(=O)[C@H](CCCCN)NC(=O)[C@H](Cc1c[nH]cn1)NC(=O)[C@H](Cc1ccccc1)NC(=O)[C@H](CC(C)C)NC(=O)[C@H](CCCNC(=N)N)NC(=O)[C@@H]1CCCN1C(=O)[C@@H](N)CCCNC(=N)N)C(=O)N1CCC[C@H]1C(=O)N[C@@H](Cc1ccc(Cl)cc1)C(=O)O [Compound in Ex. 16] (H-RPRLFHKGPMP[Phe(4-Cl)]-OH; N-terminus and C-terminus assumed) with APJ (Homo sapiens, UniProt P35414) - pEC50?
result: 9.42
